target_entity: human GLP-1 receptor (human, UniProt P43220 24-463)
procedure_text: cell-based or functional assay
Label label 1 when cAMP EC50 (1.0% HSA) is at or above 10 nM; otherwise label label 0.

Query :: Does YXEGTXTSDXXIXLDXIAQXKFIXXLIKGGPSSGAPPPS (Aib2, αMeF(2F)6, 4Pal10, αMeS11, αMeL13, Orn16, Aib20, D-Glu24, αMeY25; acylated K21, K28 (groups as in name); C-terminal amide) have a reported cAMP EC50 (1.0% HSA) of at least 10 nM?
Result :: label 1

Query :: Does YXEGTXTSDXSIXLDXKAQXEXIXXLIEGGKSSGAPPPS (Aib2, αMeF(2F)6, 4Pal10, αMeL13, Orn16, Aib20, 3ClPhe22, D-Glu24, αMeY25; acylated K17, K31 (groups as in name); C-terminal amide) have a reported cAMP EC50 (1.0% HSA) of at least 10 nM?
Result :: label 1

Query :: Does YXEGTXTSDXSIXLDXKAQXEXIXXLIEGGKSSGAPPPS (Aib2, αMeF(2F)6, 4Pal10, αMeL13, Orn16, Aib20, 2FPhe22, D-Glu24, αMeY25; acylated K17, K31 (groups as in name); C-terminal amide) have a reported cAMP EC50 (1.0% HSA) of at least 10 nM?
Result :: label 1

Query :: Does YXEGTXTSDXSIXLDXKAQXXFIXXLIEGGKSSGAPPPS (Aib2, αMeF(2F)6, 4Pal10, αMeL13, Orn16, Aib20, Orn21, D-Glu24, αMeY25; acylated K17, K31 (groups as in name); C-terminal amide) have a reported cAMP EC50 (1.0% HSA) of at least 10 nM?
Result :: label 1

Query :: Does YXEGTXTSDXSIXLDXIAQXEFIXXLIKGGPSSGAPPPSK (Aib2, αMeF(2F)6, 4Pal10, αMeL13, Orn16, Aib20, D-Glu24, αMeY25; acylated K28, K40 (groups as in name); C-terminal amide) have a reported cAMP EC50 (1.0% HSA) of at least 10 nM?
Result :: label 0

Query :: Does YXEGTXTSDXSIXLDXKAQXEFIGXLIEGGKSSGAPPPS (Aib2, αMeF(2F)6, 4Pal10, αMeL13, Orn16, Aib20, αMeY25; acylated K17, K31 (groups as in name); C-terminal amide) have a reported cAMP EC50 (1.0% HSA) of at least 10 nM?
Result :: label 1
